study-system: P. falciparum Grp94 (Plasmodium falciparum)
test-description: biochemical
Type: binding
cond: SPR, 25 °C
I'd be grateful if you could share measured kd for these entries.
Kindly answer with a numeric value in s⁻¹, unit omitted.

Prompt line: # lookup: P. falciparum Grp94 (Plasmodium falciparum) kd, key = CO[C@H]1/C=C\C=C(/C)C(=O)NC2=CC(=O)C(NCCN(C)C)=C(C[C@@H](C)C[C@H](OC)[C@H](O)[C@@H](C)/C=C(\C)[C@@H]1OC(N)=O)C2=O
Response line: 0.001

Prompt line: Please tell me the measured kd for CC(C)c1cc(-c2n[nH]c(=O)n2-c2ccc3c(ccn3C)c2)c(O)cc1O ; system: P. falciparum Grp94 (Plasmodium falciparum).
Response line: 0.003

Prompt line: Specify the recorded kd for Nc1ncnc2c1ncn2[C@@H]1O[C@H](COP(=O)(O)OP(=O)(O)O)[C@@H](O)[C@H]1O , system: P. falciparum Grp94 (Plasmodium falciparum).
Response line: 0.003

Prompt line: Lab note: P. falciparum Grp94 (Plasmodium falciparum) assay, enter kd for CC1(C)CC(=O)c2c(C(F)(F)F)nn(-c3ccc(C(N)=O)c(N[C@H]4CC[C@H](O)CC4)c3)c2C1 here
Response line: 0.0006

Prompt line: Name the value of kd reported for CC(C)c1cc(C(=O)N2Cc3ccc(CN4CCN(C)CC4)cc3C2)c(O)cc1O when tested on P. falciparum Grp94 (Plasmodium falciparum).
Response line: 0.643

Prompt line: GET kd where system = P. falciparum Grp94 (Plasmodium falciparum) and item = CC(C)NCCCn1c(Sc2cc(Cl)cc(Cl)c2)nc2c(N)ncnc21
Response line: 0.843

---

Assignment: determine reported Kd for the given compounds.
study-system: P. falciparum Hsp90 (Plasmodium falciparum)
Sequence (Q8IC05 entry or part of it): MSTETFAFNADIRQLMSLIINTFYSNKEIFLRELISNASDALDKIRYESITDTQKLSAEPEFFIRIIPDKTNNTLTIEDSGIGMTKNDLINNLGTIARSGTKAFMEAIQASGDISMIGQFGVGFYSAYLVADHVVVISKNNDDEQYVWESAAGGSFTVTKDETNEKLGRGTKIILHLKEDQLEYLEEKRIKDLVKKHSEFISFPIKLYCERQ
test-description: biochemical
Format: binding
cond: Kd
Method: Full-length human recombinant HSP90α was purchased (Cayman Chemicals, MI), while the malaria recombinant parasite proteins were generated according to the following protocol. […] The final protein products and samples for different steps in the purification procedures were evaluated in SDS-Page gels. […]
Quick note: give the figure in µM, leave out the unit.

Prompt line: Look up and report measured Kd for this entry: CCNC(=O)c1noc(-c2cc(C(C)C)c(O)cc2O)c1-c1ccc(CN2CCOCC2)cc1 [NVP-AUY922]
Response line: 0.013

Prompt line: Please indicate Kd recorded for CC(C)c1cc(-c2n[nH]c(=O)n2-c2ccc3c(ccn3C)c2)c(O)cc1O [STA-9090]
Response line: 0.121

---

study-system: P. falciparum Hsp90 (Plasmodium falciparum)
test-description: biochemical
Format: binding
cond: read-out: Kd against the parasite chaperone
Procedure: Full-length human recombinant HSP90α was purchased (Cayman Chemicals, MI), while the malaria recombinant parasite proteins were generated according to the following protocol. […] The final protein products and samples for different steps in the purification procedures were evaluated in SDS-Page gels. […]
measurement-label: Kd (nM)
Numeric answer only, unit nM assumed.

Prompt line: Provide P. falciparum Hsp90 (Plasmodium falciparum) Kd reading for CO[C@H]1/C=C\C=C(/C)C(=O)NC2=CC(=O)C(NCCN(C)C)=C(C[C@@H](C)C[C@H](OC)[C@H](O)[C@@H](C)/C=C(\C)[C@@H]1OC(N)=O)C2=O .
Response line: 8.23

---

For each record, write down the corresponding Kd.
study-system: P. falciparum Grp94 (Plasmodium falciparum, UniProt Q8I0V4)
Sequence (Q8I0V4 entry or part of it): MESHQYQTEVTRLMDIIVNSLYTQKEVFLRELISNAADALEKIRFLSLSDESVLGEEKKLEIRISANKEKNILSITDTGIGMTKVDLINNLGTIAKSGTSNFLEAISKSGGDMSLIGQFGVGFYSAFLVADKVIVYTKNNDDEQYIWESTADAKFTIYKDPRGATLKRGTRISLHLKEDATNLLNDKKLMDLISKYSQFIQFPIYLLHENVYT
test-description: biochemical
Assay type: binding
Give your result in µM as a bare value.

Prompt line: Give Kd for CC(C)NCCCn1c(Sc2cc(Cl)cc(Cl)c2)nc2c(N)ncnc21 [PUWS13]
Response line: 5600

Prompt line: # return recorded Kd for entry CC(C)c1cc(-c2n[nH]c(=O)n2-c2ccc3c(ccn3C)c2)c(O)cc1O [STA-9090]
Response line: 0.001

Prompt line: Give the reported value of Kd for this record: CCNC(=O)c1noc(-c2cc(C(C)C)c(O)cc2O)c1-c1ccc(CN2CCOCC2)cc1 [NVP-AUY922]
Response line: 0.009

Prompt line: Please give measured Kd of the following entry: CC(C)c1cc(C(=O)N2Cc3ccc(CN4CCN(C)CC4)cc3C2)c(O)cc1O [AT13387]
Response line: 2980

---

study-system: P. falciparum Hsp90 (Plasmodium falciparum)
test-description: biochemical
Assay type: binding
cond: SPR, 25 °C, calculated from kinetic constants; read-out: Kd
measurement-label: Kd (µM)
Your answer should be a plain number; it is taken to be in µM.

Prompt line: Under P. falciparum Hsp90 (Plasmodium falciparum): report Kd of Nc1ncnc2c1ncn2[C@@H]1O[C@H](COP(=O)(O)OP(=O)(O)O)[C@@H](O)[C@H]1O .
Response line: 20.6

Prompt line: // fetch Kd for CO[C@H]1/C=C\C=C(/C)C(=O)NC2=CC(=O)C(NCCN(C)C)=C(C[C@@H](C)C[C@H](OC)[C@H](O)[C@@H](C)/C=C(\C)[C@@H]1OC(N)=O)C2=O ; system: P. falciparum Hsp90 (Plasmodium falciparum)
Response line: 0.008

---

System: P. falciparum chloroquine sensitive 3D7
test-description: Growth inhibition assay (SYBR Green I), 3D7
cond: 3D7, 72 h, synchronized ring culture
measurement-label: IC50 (µM)
Please respond with the number in µM and leave the unit unwritten.

Prompt line: Look up and report IC50, with P. falciparum chloroquine sensitive 3D7 as system, for CO[C@H]1/C=C\C=C(/C)C(=O)NC2=CC(=O)C(NCCN(C)C)=C(C[C@@H](C)C[C@H](OC)[C@H](O)[C@@H](C)/C=C(\C)[C@@H]1OC(N)=O)C2=O
Response line: 0.118

Prompt line: State, for P. falciparum chloroquine sensitive 3D7, measured IC50 of the compound listed here: CCNC(=O)c1noc(-c2cc(C(C)C)c(O)cc2O)c1-c1ccc(CN2CCOCC2)cc1
Response line: 0.0755

---

Tested on: P. falciparum chloroquine sensitive 3D7
test-description: Growth inhibition assay (SYBR Green I), 3D7
cond: Plasmodium falciparum, 3D7, 72 h
For each entry below, report its IC90 value.
Answer format: numeric, µM implied, no suffix.

Prompt line: Consider the compound CO[C@H]1/C=C\C=C(/C)C(=O)NC2=CC(=O)C(NCCN(C)C)=C(C[C@@H](C)C[C@H](OC)[C@H](O)[C@@H](C)/C=C(\C)[C@@H]1OC(N)=O)C2=O . State its measured IC90.
Response line: 0.287

Prompt line: Let me know recorded IC90 for C[C@H]1[C@@H](O)O[C@@H]2O[C@@]3(C)CC[C@H]4[C@H](C)CC[C@@H]1[C@@]24OO3 [DHA, dihydroartemisinin] , thanks.
Response line: 0.0052

Prompt line: Using known records, supply IC90 for CCN(CC)CCCC(C)Nc1ccnc2cc(Cl)ccc12 (centres unmarked)
Response line: 0.0672

Prompt line: Supply IC90 value. Item: CC(C)c1cc(C(=O)N2Cc3ccc(CN4CCN(C)CC4)cc3C2)c(O)cc1O
Response line: 4.57

Prompt line: Please give the documented IC90 of CC1(C)CC(=O)c2c(C(F)(F)F)nn(-c3ccc(C(N)=O)c(N[C@H]4CC[C@H](OC(=O)CN)CC4)c3)c2C1
Response line: 4.32

Prompt line: Return IC90 for the following compound: CCNC(=O)c1noc(-c2cc(C(C)C)c(O)cc2O)c1-c1ccc(CN2CCOCC2)cc1
Response line: 0.646

Prompt line: Output measured IC90 for this item: CC(C)c1cc(-c2n[nH]c(=O)n2-c2ccc3c(ccn3C)c2)c(O)cc1O
Response line: 4.11

Prompt line: Give the reported value of IC90 for this record: COC1=C2C[C@@H](C)C[C@H](OC)[C@H](O)[C@@H](C)/C=C(\C)[C@H](OC(N)=O)[C@@H](OC)/C=C\C=C(/C)C(=O)NC(=CC1=O)C2=O
Response line: 1.7

---

study-system: human Hsp90α (Homo sapiens)
Construct: Full-length human recombinant HSP90α was purchased; purchased Cayman Chemicals, MI
test-description: Biacore SPR analysis, full-length human Hsp90α
Type: binding
cond: SPR, 25 °C
measurement-label: kd

Prompt line: Give kd for CC(C)c1cc(C(=O)N2Cc3ccc(CN4CCN(C)CC4)cc3C2)c(O)cc1O [AT13387]
Response line: 0.348 s⁻¹

Prompt line: Give kd for the following molecule: CC(C)NCCCn1c(Sc2cc(Cl)cc(Cl)c2)nc2c(N)ncnc21 [PUWS13]
Response line: 0.022 s⁻¹

Prompt line: Give kd for Nc1ncnc2c1ncn2[C@@H]1O[C@H](COP(=O)(O)OP(=O)(O)O)[C@@H](O)[C@H]1O [ADP]
Response line: 0.006 s⁻¹

Prompt line: Provide kd value for the following molecule: CO[C@H]1/C=C\C=C(/C)C(=O)NC2=CC(=O)C(NCCN(C)C)=C(C[C@@H](C)C[C@H](OC)[C@H](O)[C@@H](C)/C=C(\C)[C@@H]1OC(N)=O)C2=O [17-DMAG]
Response line: 0.007 s⁻¹
